EXPERIMENT_DESCRIPTION: 2-week rat toxicology and toxicokinetic study
Type: in vivo
EXPERIMENTAL_CONTEXT: male, Crl:CD (SD)IGS BR, rat, in vivo, po, 20 mg/kg/day, males, 20 mg/kg/day, Day 13; read-out: AUC0-24
VALUE_TYPE: AUC(0-t) (ng·h/mL)
Numbers only, in ng·h/mL.

Query: Recorded AUC(0-t) for "Clc1ccc([C@]23CNC[C@H]2C3)cc1Cl" , please?
Result: 13000

====

EXPERIMENT_DESCRIPTION: 12-month dog toxicity and toxicokinetic study
Assay type: in vivo
EXPERIMENTAL_CONTEXT: male, beagle, dog, plasma, po, 6 mg/kg/day, males, 6 mg/kg/day, Day 0
VALUE_TYPE: Cmax (µg/mL)
Give bare numbers, in µg/mL.

Query: Find the recorded Cmax belonging to Clc1ccc([C@]23CNC[C@H]2C3)cc1Cl [amitifadine] and report it.
Result: 3.25

====

EXPERIMENT_DESCRIPTION: Single dose 300 mg / 450 mg pharmacokinetic, safety and tolerability study in healthy male and female subjects
EXPERIMENTAL_CONTEXT: both, human, plasma, po, 300 mg
VALUE_TYPE: concentration at 6 h (ng/mL)
One number for each entry, in ng/mL.

Query: Any idea what concentration at 6 h was measured for O=C1NCC2(c3ccc(Cl)c(Cl)c3)CC12 (stereo not shown) ?
Result: 1690

====

EXPERIMENT_DESCRIPTION: 12-month dog toxicity and toxicokinetic study
Type: in vivo
EXPERIMENTAL_CONTEXT: female, beagle, dog, plasma, po, 2 mg/kg/day, females, 2 mg/kg/day, Day 0
VALUE_TYPE: Cmax (ng/mL)
Give bare numbers, in ng/mL.

Query: Any idea what Cmax was measured for Clc1ccc([C@]23CNC[C@H]2C3)cc1Cl [amitifadine] ?
Result: 615

====

EXPERIMENT_DESCRIPTION: Multiple-dose safety and PK study 25 mg BID and 50 mg BID for 10 days
Format: in vivo, human
EXPERIMENTAL_CONTEXT: male, human, in vivo, 25 mg, 25 mg BID; Day 10; healthy male subjects; mean (SD); read-out: AUC0-12
VALUE_TYPE: AUC(0-t) (ng·h/mL)
Give bare numbers, in ng·h/mL.

Query: Any idea what AUC(0-t) was measured for "Clc1ccc([C@]23CNC[C@H]2C3)cc1Cl" ?
Result: 1700

====

EXPERIMENT_DESCRIPTION: Single rising oral dose (10-150 mg IR) safety, tolerance and pharmacokinetics in healthy male volunteers
Type: in vivo, human
EXPERIMENTAL_CONTEXT: human, plasma, oral, 10 mg, individual subject; read-out: MRT0-∞
VALUE_TYPE: MRT inf (h)
Give bare numbers, in h.

Query: Report MRT inf for Clc1ccc([C@]23CNC[C@H]2C3)cc1Cl [amitifadine] please.
Result: 5.36

====

EXPERIMENT_DESCRIPTION: Single-dose (25 mg) food effect crossover study in 24 men (DOV 947-003)
Type: in vivo, human
EXPERIMENTAL_CONTEXT: male, human, in vivo, po, single oral dose 25 mg, Fasted, 24 healthy male subjects
VALUE_TYPE: Cmax (ng/mL)
Give bare numbers, in ng/mL.

Query: Reported Cmax for "Clc1ccc([C@]23CNC[C@H]2C3)cc1Cl" : what is it?
Result: 272
